Where do these numbers come from? They come from ChEMBL document CHEMBL4477203.

molecular target: Neuropeptide Y receptor type 4 (Homo sapiens); experiment: Agonist activity at human NPY Y4 receptor expressed in HEK293 cells co-expressing CRE-Luc gene assessed as inhibition of forskolin stimulated luciferase activity after 4.5 hrs by luminescence assay; type: functional, cell-based
Sequence (P50391 whole entry): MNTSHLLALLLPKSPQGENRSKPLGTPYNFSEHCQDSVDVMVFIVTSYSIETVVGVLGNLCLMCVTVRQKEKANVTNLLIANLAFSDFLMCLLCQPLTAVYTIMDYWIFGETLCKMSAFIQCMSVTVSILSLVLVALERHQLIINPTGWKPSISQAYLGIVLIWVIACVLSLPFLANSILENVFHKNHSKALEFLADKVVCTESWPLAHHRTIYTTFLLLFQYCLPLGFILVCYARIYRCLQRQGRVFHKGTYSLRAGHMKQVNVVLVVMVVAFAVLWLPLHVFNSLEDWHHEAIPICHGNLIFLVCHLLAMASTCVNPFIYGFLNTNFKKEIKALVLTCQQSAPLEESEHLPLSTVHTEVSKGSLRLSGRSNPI
Numbered stars: 1 amine (or outer) side, 2 acyl side, 3 side chain; on linkers, the order of the positions; unused ones are H or OH. Bridge positions count the residues as written; N and C are the ends. Square brackets hold non-standard residues; d marks the D form. Peptide text beside a SMILES is read from it. I, II: the chains in the order shown. X2 = NCCCCNC(=O)/N=C(\N)NCCC[C@H](N[*:1])C(=O)[*:2]; Suberoyl = O=C(CCCCCCC(=O)[*:2])[*:1]
Label t when EC50 is strictly below 4 nM; at or above that, label f.

# compound, system_tested, qualitative_label
records = [
    ("CC(C)C[C@H](NC(=O)[C@H](CCCNC(=N)N)NC(=O)[C@H](Cc1ccc(O)cc1)NC(=O)CCCCCCC(=O)N[C@@H](Cc1ccc(O)cc1)C(=O)N[C@@H](CCCN/C(N)=N/C(=O)NCCCCN)C(=O)N[C@@H](CC(C)C)C(=O)N[C@@H](CCCNC(=N)N)C(=O)N[C@@H](Cc1ccc(O)cc1)C(N)=O)C(=O)N[C@@H](CCCNC(=N)N)C(=O)N[C@@H](Cc1ccc(O)cc1)C(N)=O (I: Y[X2]LRY-NH2 / II: YRLRY-NH2; linker I:N-II:N via Suberoyl)", "Neuropeptide Y receptor type 4 (Homo sapiens)", "t"),
    ("CC(C)C[C@H](NC(=O)[C@H](CCCNC(=N)N)NC(=O)[C@H](Cc1ccc(O)cc1)NC(=O)CCCCCCC(=O)N[C@@H](Cc1ccc(O)cc1)C(=O)N[C@@H](CCCNC(=N)N)C(=O)N[C@@H](CC(C)C)C(=O)N[C@@H](CCCNC(=N)N)C(=O)N[C@@H](Cc1ccc(O)cc1)C(N)=O)C(=O)N[C@@H](C)C(=O)N[C@@H](Cc1ccc(O)cc1)C(N)=O (I: YRLAY-NH2 / II: YRLRY-NH2; linker I:N-II:N via Suberoyl)", "Neuropeptide Y receptor type 4 (Homo sapiens)", "f"),
    ("CC(C)C[C@H](NC(=O)[C@H](C)NC(=O)[C@H](Cc1ccc(O)cc1)NC(=O)CCCCCCC(=O)N[C@@H](Cc1ccc(O)cc1)C(=O)N[C@@H](C)C(=O)N[C@@H](CC(C)C)C(=O)N[C@@H](CCCNC(=N)N)C(=O)N[C@@H](Cc1ccc(O)cc1)C(N)=O)C(=O)N[C@@H](CCCNC(=N)N)C(=O)N[C@@H](Cc1ccc(O)cc1)C(N)=O (I: YALRY-NH2 / II: YALRY-NH2; linker I:N-II:N via Suberoyl)", "Neuropeptide Y receptor type 4 (Homo sapiens)", "f"),
    ("CC(C)C[C@H](NC(=O)[C@H](CCCNC(=N)N)NC(=O)[C@H](Cc1ccc(O)cc1)NC(=O)CCCCCCC(=O)N[C@@H](Cc1ccc(O)cc1)C(=O)N[C@@H](CCCNC(=N)N)C(=O)N[C@@H](CC(C)C)C(=O)N[C@@H](CCCNC(=N)N)C(=O)N[C@@H](Cc1ccc(O)cc1)C(N)=O)C(=O)N[C@@H](CCCNC(=N)N)C(=O)N[C@@H](Cc1ccc(O)cc1)C(N)=O (I: YRLRY-NH2 / II: YRLRY-NH2; linker I:N-II:N via Suberoyl)", "Neuropeptide Y receptor type 4 (Homo sapiens)", "f"),
    ("CC(C)C[C@H](NC(=O)[C@H](CCCNC(=N)N)NC(=O)[C@H](Cc1ccc(O)cc1)NC(=O)[C@@H](N)CCCC[C@H](N)C(=O)N[C@@H](Cc1ccc(O)cc1)C(=O)N[C@@H](CCCNC(=N)N)C(=O)N[C@@H](CC(C)C)C(=O)N[C@@H](CCCNC(=N)N)C(=O)N[C@@H](Cc1ccc(O)cc1)C(N)=O)C(=O)N[C@@H](CCCNC(=N)N)C(=O)N[C@@H](Cc1ccc(O)cc1)C(N)=O", "Neuropeptide Y receptor type 4 (Homo sapiens)", "f"),
]

A record lists CC(C)C[C@H](NC(=O)[C@H](CCCNC(=N)N)NC(=O)[C@H](Cc1ccc(O)cc1)NC(=O)[C@H](N)CCCC[C@@H](N)C(=O)N[C@@H](Cc1ccc(O)cc1)C(=O)N[C@@H](CCCNC(=N)N)C(=O)N[C@@H](CC(C)C)C(=O)N[C@@H](CCCNC(=N)N)C(=O)N[C@@H](Cc1ccc(O)cc1)C(N)=O)C(=O)N[C@@H](CCCNC(=N)N)C(=O)N[C@@H](Cc1ccc(O)cc1)C(N)=O . Is its EC50 below 4 nM?
t

Find out if reported EC50 for CC(C)C[C@H](NC(=O)[C@H](CCCNC(=N)N)NC(=O)[C@H](Cc1ccc(O)cc1)NC(=O)CCCCCCC(=O)N[C@@H](Cc1ccc(O)cc1)C(=O)N[C@@H](CCCNC(=N)N)C(=O)N[C@@H](CC(C)C)C(=O)N[C@@H](C)C(=O)N[C@@H](Cc1ccc(O)cc1)C(N)=O)C(=O)N[C@@H](C)C(=O)N[C@@H](Cc1ccc(O)cc1)C(N)=O (I: YRLAY-NH2 / II: YRLAY-NH2; linker I:N-II:N via Suberoyl) is less than 4 nM
f

Is the reported EC50 for CC(C)C[C@H](NC(=O)[C@H](C)NC(=O)[C@H](Cc1ccc(O)cc1)NC(=O)CCCCCCC(=O)N[C@@H](Cc1ccc(O)cc1)C(=O)N[C@@H](CCCNC(=N)N)C(=O)N[C@@H](CC(C)C)C(=O)N[C@@H](CCCNC(=N)N)C(=O)N[C@@H](Cc1ccc(O)cc1)C(N)=O)C(=O)N[C@@H](CCCNC(=N)N)C(=O)N[C@@H](Cc1ccc(O)cc1)C(N)=O (I: YALRY-NH2 / II: YRLRY-NH2; linker I:N-II:N via Suberoyl) strictly below 4 nM?
f
